Tested on: IL-8
ASSAY_PROTOCOL: Inhibition of IL-8 production by stimulated human peripheral blood leukocytes in vitro
Type: cell-based
PROTOCOL_CONDITIONS: Homo sapiens, Leukocyte, 50 μM; zymosan-stimulated PBL; read-out: Percentage of inhibition of IL-8 production
Method: Test substances used in in vitro experiments were dissolved in dimethyl sulfoxide (DMSO) (Kemika, Croatia) at concentrations of 50 mM and 10 mM, and were further diluted to final concentrations of 50 μM and 10 μM in 1 mL Dulbecco's modified Eagle medium (DMEM) supplemented with 1% heat inactivated fetal bovine serum (FBS), 1% L-glutamine, 50 U/ml penicillin, 50 μg/ml streptomycin and 2.5 μg/mL Fungizone (amphotericin B). […]
QUANTITY_NAME: inhibition at 50 µM (%)

CC[C@H]1OC(=O)[C@H](C)[C@@H](O[C@H]2C[C@@](C)(OC)[C@@H](OC(=O)CCN(C)C3CCCCC3)[C@H](C)O2)[C@H](C)[C@@H](O[C@@H]2O[C@H](C)C[C@H](N(C)C)[C@H]2O)[C@](C)(OC)C[C@@H](C)C(=O)N[C@H](C)[C@@H](O)[C@]1(C)O; 63
CC[C@H]1OC(=O)[C@H](C)[C@@H](O[C@H]2C[C@@](C)(OC)[C@@H](OC(=O)CCN3CCCCCC3)[C@H](C)O2)[C@H](C)[C@@H](O[C@@H]2O[C@H](C)C[C@H](N(C)C)[C@H]2O)[C@](C)(OC)C[C@@H](C)C(=O)N[C@H](C)[C@@H](O)[C@]1(C)O; 63
CC[C@H]1OC(=O)[C@H](C)[C@@H](O[C@H]2C[C@@](C)(OC)[C@@H](OC(=O)CCN(CC)CC)[C@H](C)O2)[C@H](C)[C@@H](O[C@@H]2O[C@H](C)C[C@H](N(C)C)[C@H]2O)[C@](C)(O)C[C@@H](C)CN(C)[C@H](C)[C@H]2OC(=O)O[C@@]21C; 100
CC[C@H]1OC(=O)[C@H](C)[C@@H](O[C@H]2C[C@@](C)(OC)[C@@H](OC(=O)CCN3CCN(CCCN4CCCCC4)CC3)[C@H](C)O2)[C@H](C)[C@@H](O[C@@H]2O[C@H](C)C[C@H](N(C)C)[C@H]2O)[C@](C)(OC)C[C@@H](C)C(=O)N[C@H](C)[C@@H](O)[C@]1(C)O; 30
CC[C@H]1OC(=O)[C@H](C)[C@@H](O[C@H]2C[C@@](C)(OC)[C@@H](OC(=O)CCN(CC)CC)[C@H](C)O2)[C@H](C)[C@@H](O[C@@H]2O[C@H](C)C[C@H](NC)[C@H]2O)[C@](C)(OC)C[C@@H](C)C(=O)N[C@H](C)[C@@H](O)[C@]1(C)O; 53
CC[C@H]1OC(=O)[C@H](C)[C@@H](OC2C[C@@](C)(OC)[C@@H](OC(=O)CCN3CCNCC3)[C@H](C)O2)[C@H](C)[C@@H](OC2O[C@H](C)C[C@H](N(C)C)[C@H]2O)[C@](C)(OC)C[C@@H](C)C(=O)[C@H](C)[C@@H](O)[C@]1(C)O (stereo partly shown); 70
CC[C@H]1OC(=O)[C@H](C)[C@@H](O[C@H]2C[C@@](C)(OC)[C@@H](OC(=O)CCN3CCN(CCOCCO)CC3)[C@H](C)O2)[C@H](C)[C@@H](O[C@@H]2O[C@H](C)C[C@H](N(C)C)[C@H]2O)[C@](C)(OC)C[C@@H](C)C(=O)N[C@H](C)[C@@H](O)[C@]1(C)O; 22

---

Test system: TNF-α
ASSAY_PROTOCOL: Inhibition of TNF-α production by stimulated human peripheral blood leukocytes in vitro
Assay type: cell-based
PROTOCOL_CONDITIONS: Homo sapiens, Leukocyte, 50 μM; PMA-stimulated PBL; read-out: Percentage of inhibition of TNF-α production
QUANTITY_NAME: inhibition at 50 µM (%)

CC[C@H]1OC(=O)[C@H](C)[C@@H](O[C@H]2C[C@@](C)(OC)[C@@H](OC(=O)CCN3CCN(CCOCCO)CC3)[C@H](C)O2)[C@H](C)[C@@H](O[C@@H]2O[C@H](C)C[C@H](N(C)C)[C@H]2O)[C@](C)(OC)C[C@@H](C)C(=O)N[C@H](C)[C@@H](O)[C@]1(C)O; 57
CC[C@H]1OC(=O)[C@H](C)[C@@H](O[C@H]2C[C@@](C)(OC)[C@@H](OC(=O)CCN3CCCN(CCCN4CCCC4)CC3)[C@H](C)O2)[C@H](C)[C@@H](O[C@@H]2O[C@H](C)C[C@H](N(C)C)[C@H]2O)[C@](C)(OC)C[C@@H](C)C(=O)N[C@H](C)[C@@H](O)[C@]1(C)O; 100
CC[C@H]1OC(=O)[C@H](C)[C@@H](O[C@H]2C[C@@](C)(OC)[C@@H](OC(=O)CCNC(C)C)[C@H](C)O2)[C@H](C)[C@@H](O[C@@H]2O[C@H](C)C[C@H](N(C)C)[C@H]2O)[C@](C)(OC)C[C@@H](C)C(=O)N[C@H](C)[C@@H](O)[C@]1(C)O; 54
CC[C@H]1OC(=O)[C@H](C)[C@@H](O[C@H]2C[C@@](C)(OC)[C@@H](OC(=O)CCN(CC)CC)[C@H](C)O2)[C@H](C)[C@@H](O[C@@H]2O[C@H](C)C[C@H](N(C)C)[C@H]2O)[C@](C)(OC)C[C@@H](C)C(=O)[C@H](C)[C@H]2N(C)C(=O)O[C@]12C; 62
CC[C@H]1OC(=O)[C@H](C)[C@@H](O[C@H]2C[C@@](C)(OC)[C@@H](OC(=O)CCN(C)C3CCCCC3)[C@H](C)O2)[C@H](C)[C@@H](O[C@@H]2O[C@H](C)C[C@H](N(C)C)[C@H]2O)[C@](C)(OC)C[C@@H](C)C(=O)N[C@H](C)[C@@H](O)[C@]1(C)O; 91
CC[C@H]1OC(=O)[C@H](C)[C@@H](O[C@H]2C[C@@](C)(OC)[C@@H](OC(=O)CCN3CC(C)CC(C)C3)[C@H](C)O2)[C@H](C)[C@@H](O[C@@H]2O[C@H](C)C[C@H](N(C)C)[C@H]2O)[C@](C)(OC)C[C@@H](C)C(=O)N[C@H](C)[C@@H](O)[C@]1(C)O (stereo partly shown); 45
CC[C@H]1OC(=O)[C@H](C)[C@@H](O[C@H]2C[C@@](C)(OC)[C@@H](OC(=O)CCN3CCN(CCN(C)C)CC3)[C@H](C)O2)[C@H](C)[C@@H](O[C@@H]2O[C@H](C)C[C@H](N(C)C)[C@H]2O)[C@](C)(OC)C[C@@H](C)C(=O)N[C@H](C)[C@@H](O)[C@]1(C)O; 67

---

Measured Percentage of inhibition of cell growth, listed per entry.
System: Hep G2
ASSAY_PROTOCOL: Cytotoxicity assay (MTT), Hep G2 cell line
Type: cell-based
PROTOCOL_CONDITIONS: 50 μM, 24 h
QUANTITY_NAME: Percentage of inhibition of cell growth (%)

CC[C@H]1OC(=O)[C@H](C)[C@@H](O[C@H]2C[C@@](C)(OC)[C@@H](OC(=O)CCN(CC)CC)[C@H](C)O2)[C@H](C)[C@@H](O[C@@H]2O[C@H](C)C[C@H](N(C)C)[C@H]2O)[C@](C)(OC)C[C@@H](C)C(=O)[C@H](C)[C@H]2N(C)C(=O)O[C@]12C [Example 10]; 5
CC[C@H]1OC(=O)[C@H](C)[C@@H](OC2C[C@@](C)(OC)[C@@H](OC(=O)CCN3CCNCC3)[C@H](C)O2)[C@H](C)[C@@H](OC2O[C@H](C)C[C@H](N(C)C)[C@H]2O)[C@](C)(OC)C[C@@H](C)C(=O)[C@H](C)[C@@H](O)[C@]1(C)O (some centres unmarked) [Example 50]; 8
C=CC(=O)OC1[C@H](C)O[C@@H](O[C@H]2[C@H](C)[C@@H](O[C@@H]3O[C@H](C)C[C@H](NC)[C@H]3O)[C@](C)(OC)C[C@@H](C)C(=O)N[C@H](C)[C@@H](O)[C@](C)(O)[C@@H](CC)OC(=O)[C@@H]2C)C[C@@]1(C)OC (some centres unmarked) [Example 53]; 2
CC[C@H]1OC(=O)[C@H](C)[C@@H](O[C@H]2C[C@@](C)(OC)[C@@H](O)[C@H](C)O2)[C@H](C)[C@@H](O[C@@H]2O[C@H](C)C[C@H](N(C)C)[C@H]2O)[C@](C)(OC)C[C@@H](C)C(=O)[C@H](C)[C@@H](O)[C@]1(C)O [clarithromycin, reference compound]; 0
CC[C@H]1OC(=O)[C@H](C)[C@@H](O[C@H]2C[C@@](C)(OC)[C@@H](OC(=O)CCNC(C)C)[C@H](C)O2)[C@H](C)[C@@H](O[C@@H]2O[C@H](C)C[C@H](N(C)C)[C@H]2O)[C@](C)(OC)C[C@@H](C)C(=O)N[C@H](C)[C@@H](O)[C@]1(C)O [Example 23]; 5
CC[C@H]1OC(=O)[C@H](C)[C@@H](O[C@H]2C[C@@](C)(OC)[C@@H](OC(=O)CCN(C)C)[C@H](C)O2)[C@H](C)[C@@H](O[C@@H]2O[C@H](C)C[C@H](N(C)C)[C@H]2O)[C@](C)(OC)C[C@@H](C)C(=O)N[C@H](C)[C@@H](O)[C@]1(C)O [Example 12]; 0
CC[C@H]1OC(=O)[C@H](C)[C@@H](O[C@H]2C[C@@](C)(OC)[C@@H](OC(=O)CCN3CCCCCC3)[C@H](C)O2)[C@H](C)[C@@H](O[C@@H]2O[C@H](C)C[C@H](N(C)C)[C@H]2O)[C@](C)(OC)C[C@@H](C)C(=O)N[C@H](C)[C@@H](O)[C@]1(C)O [Example 41]; 3
CC[C@H]1OC(=O)[C@H](C)[C@@H](O[C@H]2C[C@@](C)(OC)[C@@H](OCCCN)[C@H](C)O2)[C@H](C)[C@@H](O[C@@H]2O[C@H](C)C[C@H](N(C)C)[C@H]2O)[C@](C)(O)C[C@@H](C)CN(C)[C@H](C)[C@H]2OC(=O)O[C@@]21C [Example 51C]; 7
CC[C@H]1OC(=O)[C@H](C)[C@@H](O[C@H]2C[C@@](C)(OC)[C@@H](OC(=O)CCN(CC)CC)[C@H](C)O2)[C@H](C)[C@@H](O[C@@H]2O[C@H](C)C[C@H](N(C)C)[C@H]2O)[C@](C)(O)C[C@@H](C)CN(C)[C@H](C)[C@@H](O)[C@]1(C)O [Example 48]; 9
CC[C@H]1OC(=O)[C@H](C)[C@@H](O[C@H]2C[C@@](C)(OC)[C@@H](OC(=O)CCN(CC)CC)[C@H](C)O2)[C@H](C)[C@@H](O[C@@H]2O[C@H](C)C[C@H](N(C)C)[C@H]2O)[C@](C)(O)C[C@@H](C)CN(C)[C@H](C)[C@H]2OC(=O)O[C@@]21C [Example 1]; 15
CC[C@H]1OC(=O)[C@H](C)[C@@H](O[C@H]2C[C@@](C)(OC)[C@@H](OC(=O)CCN3CCN(CCCN(CC)CC)CC3)[C@H](C)O2)[C@H](C)[C@@H](O[C@@H]2O[C@H](C)C[C@H](N(C)C)[C@H]2O)[C@](C)(OC)C[C@@H](C)C(=O)N[C@H](C)[C@@H](O)[C@]1(C)O [Example 31]; 0
CC[C@H]1OC(=O)[C@H](C)[C@@H](O[C@H]2C[C@@](C)(OC)[C@@H](OC(=O)CCN3CCN(CCOCCO)CC3)[C@H](C)O2)[C@H](C)[C@@H](O[C@@H]2O[C@H](C)C[C@H](N(C)C)[C@H]2O)[C@](C)(OC)C[C@@H](C)C(=O)N[C@H](C)[C@@H](O)[C@]1(C)O [Example 18]; 3
CC[C@H]1OC(=O)[C@H](C)[C@@H](O[C@H]2C[C@@](C)(OC)[C@@H](OC(=O)CCN3CCCN(CCCN4CCCC4)CC3)[C@H](C)O2)[C@H](C)[C@@H](O[C@@H]2O[C@H](C)C[C@H](N(C)C)[C@H]2O)[C@](C)(OC)C[C@@H](C)C(=O)N[C@H](C)[C@@H](O)[C@]1(C)O [Example 34]; 1
CC[C@H]1OC(=O)[C@H](C)[C@@H](O[C@H]2C[C@@](C)(OC)[C@@H](OC(=O)CCN3CC(C)CC(C)C3)[C@H](C)O2)[C@H](C)[C@@H](O[C@@H]2O[C@H](C)C[C@H](N(C)C)[C@H]2O)[C@](C)(OC)C[C@@H](C)C(=O)N[C@H](C)[C@@H](O)[C@]1(C)O (some centres unmarked) [Example 37]; 19
